// data source = patent US8097641B2

A collection of compounds and their measured pIC50
Target: Cloned Human Serotonin Receptor, Subtype 7 (h5HT7) (Homo sapiens)
Sequence (P34969 whole entry): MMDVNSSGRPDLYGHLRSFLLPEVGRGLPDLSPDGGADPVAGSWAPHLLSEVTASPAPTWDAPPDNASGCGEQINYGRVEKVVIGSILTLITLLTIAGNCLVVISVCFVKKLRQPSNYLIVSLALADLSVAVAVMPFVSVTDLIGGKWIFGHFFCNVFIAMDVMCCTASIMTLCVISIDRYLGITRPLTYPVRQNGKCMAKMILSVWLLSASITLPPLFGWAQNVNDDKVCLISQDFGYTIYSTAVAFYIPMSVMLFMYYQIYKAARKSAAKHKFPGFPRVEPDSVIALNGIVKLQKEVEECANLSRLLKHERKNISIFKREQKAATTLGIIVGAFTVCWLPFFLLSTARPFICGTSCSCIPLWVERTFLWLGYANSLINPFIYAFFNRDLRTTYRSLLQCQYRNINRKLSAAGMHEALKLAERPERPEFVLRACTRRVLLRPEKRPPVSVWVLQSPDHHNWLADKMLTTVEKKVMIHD
Counter-ions that a name gives are not always drawn.
As a rule, pIC50 stands for the negative log10 of the concentration, concentration in M.

* Cc1nn(C)c(C)c1-c1cccc2c1CC[C@H](NC(C)C)C2 [Example P] | 6.23

Turning now to a further compound:
Req: Provide one value: measured pIC50 of Cc1nn(C)c(C)c1-c1cccc2c1CC[C@H](N)C2 [Example O, dihydrochloride]
Resp: 7.60
